measurement notes: ATG_NF_kB_CIS: Attagene CIS-FACTORIAL HepG2 Assay for human Nuclear Factor Kappa B (NF-kB) (AID 2282991)
recorded conditions: HepG2 Attagene cis-factorial NF-kB reporter mRNA; actives raise or lower the signal
Description: ATG_CIS is a cell-based, multiplexed-readout assay that uses HepG2, a human liver cell line, with measurements taken at 24 hours after chemical dosing in a 24-well plate.ATG_NF_kB_CIS is one of 52 assay component(s) measured or calculated from the ATG_CIS assay. […] This assay endpoint, ATG_NF_kB_CIS, was analyzed with bidirectional fitting relative to DMSO as the negative control and baseline of activity. […]
Active and inactive are the calls of the source. Rule for the calls: active = hit-call score of the fitted dose curve at least 0.9, where 1 is the maximum; inactive = score below 0.9.
property: outcome

> print(dat)
                                    molecule  property  recorded.result
 1                   Cc1cc(C)nc(Nc2ccccc2)n1   outcome         inactive
 2                             O=P(O)(O)CCCl   outcome         inactive
 3     O=C(Nc1ccccc1-c1ccc(Cl)cc1)c1cccnc1Cl   outcome         inactive
 4  O=C1C2CC=CCC2C(=O)N1SC(Cl)(Cl)Cl (stereo unspecified)   outcome         inactive
 5  COCC(C)N(C(=O)CCl)c1c(C)csc1C (stereo unspecified)   outcome         inactive
 6              CNC(=O)N(C)c1nnc(C(C)(C)C)s1   outcome         inactive
 7              COC(=O)NS(=O)(=O)c1ccc(N)cc1   outcome         inactive
 8  CC(C)(C)C(=O)C(Oc1ccc(Cl)cc1)n1cncn1 (stereo unspecified)   outcome         inactive
 9          CCN(CC)c1nc(C)cc(OP(=S)(OC)OC)n1   outcome         inactive
10                Nc1cnn(-c2ccccc2)c(=O)c1Cl   outcome         inactive
11  CCC(C)n1c(=O)[nH]c(C)c(Br)c1=O (stereo unspecified)   outcome         inactive

* * *

measurement notes: ATG_CRE_CIS: Attagene CIS-FACTORIAL HepG2 Assay for human cAMP Responsive Element (CRE) binding protein 3 (AID 2282926)
recorded conditions: HepG2 CRE cis-reporter, Attagene multiplexed mRNA; actives raise or lower the signal
Calls of active or inactive are those of the source. The calls were made as follows: active = hit-call score of the fitted dose curve at least 0.9, where 1 is the maximum; inactive = score below 0.9.
Possible outcomes: active, inactive

> print(dat)
                                    compound  class.assignment
 1                  CCNC(=O)NC(=O)C(C#N)=NOC          inactive
 2  CS(=O)(=O)c1ccc(C(=O)C2C(=O)CCCC2=O)c([N+](=O)[O-])c1          inactive
 3              CNC(=O)N(C)c1nnc(C(C)(C)C)s1          inactive
 4                CC1(C)CON(Cc2ccccc2Cl)C1=O          inactive
 5  C=C(C)CN(CC)c1c([N+](=O)[O-])cc(C(F)(F)F)cc1[N+](=O)[O-]          inactive
 6  CC(C)(C)C(=O)C(Oc1ccc(Cl)cc1)n1cncn1 (configuration not stated)            active
 7  CCCCC(O)(Cn1cncn1)c1ccc(Cl)cc1Cl (configuration not stated)          inactive
 8               Nc1c(Cl)c(Cl)nc(C(=O)O)c1Cl          inactive
 9            COP(=O)(OC)O/C(C)=C/C(=O)N(C)C          inactive
10  COCc1cnc(C2=NC(C)(C(C)C)C(=O)N2)c(C(=O)O)c1 (configuration not stated)          inactive
11              O=C(O)c1c(Cl)ccc2cc(Cl)cnc12          inactive
12    CC(C)Oc1cccc(NC(=O)c2ccccc2C(F)(F)F)c1            active
